- tested.target: recombinant human IL-31 (C108S), produced in E. coli by ZymoGenetics, MW 18 kDa (human), Q6EBC2
- assay: cell-based or functional assay
property.measured: Average Fold loss in potency relative to 292.12.3.1, BAF-3(hIL-31R) proliferation assay (fold)
API: value field is a number in fold; no unit string.

See these solved cases before continuing.
humanized 292.12.3.1 construct clone 13 (12VH1-gly + HC(F29L, M69L, R71A, T73K, V78A) + LC(fback)) (antibody, human IgG4, V domains shown) VH: QVQLVQSGAEVKKPGASVKVSCKASGYTLTRYWMQWVRQAPGQGLEWMGAIYPGDGDTRYSQKFQGRVTLTADKSISTAYMELSSLRSEDTAVYYCARPDGYYAAPYGMDYWGQGTLVTVSS VL: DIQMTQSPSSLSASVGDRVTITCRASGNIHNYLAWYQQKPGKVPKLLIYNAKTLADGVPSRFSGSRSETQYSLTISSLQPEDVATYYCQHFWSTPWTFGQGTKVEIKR    99.1
humanized 292.12.3.1 construct clone 18 (12VH1-gly + HC(fback) + LC(G66R, G68E, F71Y)) (antibody, human IgG4, V domains shown) VH: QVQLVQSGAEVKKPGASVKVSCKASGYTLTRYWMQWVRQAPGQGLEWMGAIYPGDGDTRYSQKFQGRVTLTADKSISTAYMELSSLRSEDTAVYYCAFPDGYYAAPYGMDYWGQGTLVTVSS VL: DIQMTQSPSSLSASVGDRVTITCRASGNIHNYLAWYQQKPGKVPKLLIYNAKTLADGVPSRFSGSRSETDYTLTISSLQPEDVATYYCQHFWSTPWTFGQGTKVEIKR    5.9
humanized 292.12.3.1 construct clone 8 (12VH5-gly + fback) (antibody, human IgG4, V domains shown, also called 08) VH: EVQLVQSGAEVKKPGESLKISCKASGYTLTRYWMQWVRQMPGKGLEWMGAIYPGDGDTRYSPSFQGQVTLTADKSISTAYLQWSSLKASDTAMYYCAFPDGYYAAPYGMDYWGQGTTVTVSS VL: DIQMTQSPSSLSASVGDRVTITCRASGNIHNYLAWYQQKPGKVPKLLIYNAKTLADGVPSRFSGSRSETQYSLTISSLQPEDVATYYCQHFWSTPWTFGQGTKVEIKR    2.5

Query: Using the record for humanized 292.12.3.1 construct clone 9 (12VH1-gly + HC(fback)) (antibody, human IgG4, V domains shown, also called 09) VH: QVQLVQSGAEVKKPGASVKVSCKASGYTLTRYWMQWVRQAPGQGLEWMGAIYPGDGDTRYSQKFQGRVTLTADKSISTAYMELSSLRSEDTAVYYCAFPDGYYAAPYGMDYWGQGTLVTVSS VL: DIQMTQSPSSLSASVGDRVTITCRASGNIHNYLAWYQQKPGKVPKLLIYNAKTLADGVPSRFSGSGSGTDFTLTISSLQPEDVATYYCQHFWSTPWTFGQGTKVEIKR , report its Average Fold loss in potency relative to 292.12.3.1, BAF-3(hIL-31R) proliferation assay.
Reply: 15.1

Query: Using the record for humanized 292.12.3.1 construct clone 16 (12VH1-gly + HC(fback) + LC(G66R, G68E, D70Q, T72S)) (antibody, human IgG4, V domains shown) VH: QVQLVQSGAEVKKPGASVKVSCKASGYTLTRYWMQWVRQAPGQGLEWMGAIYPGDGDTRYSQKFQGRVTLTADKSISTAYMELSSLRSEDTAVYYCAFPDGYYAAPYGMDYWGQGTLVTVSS VL: DIQMTQSPSSLSASVGDRVTITCRASGNIHNYLAWYQQKPGKVPKLLIYNAKTLADGVPSRFSGSRSETQFSLTISSLQPEDVATYYCQHFWSTPWTFGQGTKVEIKR , report its Average Fold loss in potency relative to 292.12.3.1, BAF-3(hIL-31R) proliferation assay.
Reply: 9.8
